Values compiled from patent US20250250357A1.

Parameter: OD450. Scope: all listed entries.
molecular target: T1, human MSLN-hFc protein (Acro, Cat. No. MSN-H5253) (human, UniProt Q13421 296-580); assay: ELISA on coated antigen, antibody 10 nM
T1 construct: the method names the coated protein as human MSLN-hFc (Acro); also called human MSLN full-length protein
T1 sequence (Q13421 other isoform, or with tags, fused parts or gaps limits assumed): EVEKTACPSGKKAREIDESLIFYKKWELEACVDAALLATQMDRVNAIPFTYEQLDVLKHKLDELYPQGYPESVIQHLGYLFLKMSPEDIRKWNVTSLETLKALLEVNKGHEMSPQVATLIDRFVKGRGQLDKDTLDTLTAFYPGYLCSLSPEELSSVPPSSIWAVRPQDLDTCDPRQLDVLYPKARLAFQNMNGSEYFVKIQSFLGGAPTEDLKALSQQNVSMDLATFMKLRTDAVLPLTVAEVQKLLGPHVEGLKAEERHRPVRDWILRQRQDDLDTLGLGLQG
Respond numerically; units are OD450 and should not be typed.

Reference set, count: 2
Suppose we examine the binder F7.44.20-H13 (scFv, not shown: small tags and cut ends, also called S009-F7.44.20 humanized antibody VH2a + VL1) scFv: EVQLVQSGAEVKKPGASVKVSCKASGYTFTDYNMDWVRQAPGQGLEWMGDINPSTGGTIYNQKFSGRVTMTEDKSASTVYMELSSLRSEDTAVYYCARRRIGTGYFDVWGQGTTVTVSSGGGGSGGGGSGGGGSEIVLTQSPDFQSVTPKEKVTITCSASSSVISSYLSWYQQKPDQSPKLLIYRTSNLASGVPSRFSGSGSGTDFTLTINSLEAEDAATYYCHQWSSFPYTFGGGTKVEIK ; what OD450 value has been reported?
2.81

Now the binder F7.44.20-H6 (scFv, not shown: small tags and cut ends, also called S009-F7.44.20 humanized antibody VH1a + VL2) scFv: EVQLVQSGAEVKKPGASVKVSCKASGYTFTDYNMDWVRQAPGQGLEWMGDINPSTGGTIYNQKFQGRVTMTEDKSTSTVYMELSSLRSEDTAVYYCARRRIGTGYFDVWGQGTTVTVSSGGGGSGGGGSGGGGSEIVLTQSPDFQSVTPKEKVTITCSASSSVISSYLSWYQQKPDQSPKLLIYRTSNLASGVPSRFSGSGSGTDYTLTINSLEAEDAATYYCHQWSSFPYTFGGGTKVEIK
2.91

Turning now to a further record.
Tell me the measured OD450 of F7.44.20-H7 (scFv, not shown: small tags and cut ends, also called S009-F7.44.20 humanized antibody VH1a + VL3) scFv: EVQLVQSGAEVKKPGASVKVSCKASGYTFTDYNMDWVRQAPGQGLEWMGDINPSTGGTIYNQKFQGRVTMTEDKSTSTVYMELSSLRSEDTAVYYCARRRIGTGYFDVWGQGTTVTVSSGGGGSGGGGSGGGGSEIVLTQSPATLSLSPGERATLSCSASSSVISSYLSWYQQKPGQSPRLLIYRTSNLASGIPARFSGSGSGTDYTLTISSLEPEDFAVYYCHQWSSFPYTFGGGTKVEIK , please.
2.99
